Just for reference, patent US20210395392A1 is where these values come from.

Below, each of the binders is paired with its reported pKd value.
Molecular target: T1, Recombinant soluble extracellular domain of human MerTK (human, UniProt Q12866 21-505)
T1 construct: SPR analyte; also called hMerTK
T1 sequence: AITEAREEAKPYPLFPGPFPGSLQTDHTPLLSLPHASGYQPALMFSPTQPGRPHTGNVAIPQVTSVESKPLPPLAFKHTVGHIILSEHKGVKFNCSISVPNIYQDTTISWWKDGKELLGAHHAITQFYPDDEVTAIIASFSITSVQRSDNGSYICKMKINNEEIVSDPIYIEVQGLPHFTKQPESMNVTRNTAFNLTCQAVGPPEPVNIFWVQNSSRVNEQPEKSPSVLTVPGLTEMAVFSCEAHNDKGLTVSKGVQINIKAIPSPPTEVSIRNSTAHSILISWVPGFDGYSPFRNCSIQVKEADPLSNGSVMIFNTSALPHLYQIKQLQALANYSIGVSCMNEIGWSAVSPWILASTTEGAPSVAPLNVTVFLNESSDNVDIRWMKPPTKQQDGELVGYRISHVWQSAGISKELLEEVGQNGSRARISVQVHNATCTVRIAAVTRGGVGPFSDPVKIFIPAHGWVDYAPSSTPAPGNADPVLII
Assay: SPR, mAb captured, soluble MerTK ECD as analyte, 37 C
// returns pKd (minus log10 of molar concentration), number only

Some binders with recorded pKd:
Binder | Reported Value
HuMAb 22I16 (antibody, human IgG1, kappa, V domains shown, Human anti-hMerTK mAb, Bin 1; also called 22116) VH: EVQLVESGGGLVQPGGSLRLSCAASGFTFSSYSMNWVRQAPGKGLEWVSYIISGSDTIFYADSVKGRFTISRDNAKNSLYLQMNSLRDEDTAVYYCARDETVVRGVINYFDYWGQGTLVTVSS VL: AIQLTQSPSSLSASVGDRVTITCRSSQGISSALAWYQQKPGKAPKLLIYDASSLESGVPSRFSGSGSGTDFTLTISSLQPEDFATYYCQQFISYPTFGQGTRLEIKR | 7.97
HuMAb 4K10 (antibody, human IgG1, kappa, V domains shown, Human anti-hMerTK mAb, Bin 3) VH: QVQLQQWGAGLLKPSETLSLTCAVYGGSFSGYYWSWLRQPPGKGLEWIGEISHSGSTNYNPSLKSRVTISVDTSKNQFSLKLSSVTAADTAVYYCARALSRYWYFDLWGRGTLVTVSS VL: EIVLTQSPATLSLSPGERATLSCRASQSASNYLAWYQQKPGQAPRLLIYDASNRATGIPARFSGSGSGTDFTLTISSLEPEDFAVYYCYQRSQWPISFGQGTRLEIKR | 7.56

Input line: Given HuMAb 25J80 (antibody, human IgG1, kappa, V domains shown, Human anti-hMerTK mAb, Bin 2, derived from HuMAb 25B10 by optimization) VH: QVQLVQSGAEVKKPGASVKVSCKTSGRTFIRYYMHWVRQAPGQGLEWMGIIWPNGDQTTYAQKFQGRVTMTRDTSTSTVYMELSSLRSEDTAVYYCATTYKYAMDVWGQGTTVTVSS VL: EIVLTQSPGTLSLSPGERATLSCRASQSVRSNYLAWYQQKPGQAPRLLIYGASSRATGIPDRFSGSGSGTDFTLTISRLEPEDFAVYYCQQYESPPRTFGQGTKVEIKR , state its recorded pKd.
Output line: 8.39
